The origin of these recorded values is patent US8921376B2.

- Experimental target: UniProt Q13464
- Assay protocol: ROCK-I inhibition assay (radioactive enzyme assay, MBP substrate)
- Type: biochemical
- Measurement parameters: Table 6; enzyme inhibition data (Ki)
pKi: −log10 of the molar value.
Listing: pKi of selected compounds

| Compound | pKi |
| --- | --- |
| CCC1CCCCN1C(=O)c1csc(-c2ccnc3[nH]ccc23)n1 (stereo not drawn) | > 6.30 |
| O=C(CCNc1nc(-c2ccnc3[nH]ccc23)nc2ccccc12)NCC(F)(F)F | < 5.40 |
| C=CCN(CC=C)C(=O)c1cc(-c2c(F)cnc3[nH]ccc23)c[nH]1 | 5.30 to 6.30 |
| C[C@@H](Nc1ccnc(-c2ccnc3[nH]ccc23)n1)C(=O)NCC(F)(F)F | < 5.40 |
| C#CCOC(=O)N1CC[C@@H](Nc2c(Cl)cnc3[nH]ccc23)C1 | 5.30 to 6.30 |
| Oc1ccccc1-c1ccnc2[nH]ccc12 | 5.30 to 6.30 |
| COC(=O)N1CC[C@@H](Nc2c(Cl)cnc3[nH]ccc23)C1 | 5.30 to 6.30 |
| Clc1cnc2[nH]ccc2c1NC1CCCCCC1 | > 6.30 |
| CCCCN(CC#N)C(=O)c1cc(-c2ccnc3[nH]ccc23)c[nH]1 | > 6.30 |
| CCCN(CCC)C(=O)c1ccc(-c2ccnc3[nH]ccc23)s1 | > 6.30 |
| N#CC1CCCN1C(=O)c1cc(-c2c(Cl)cnc3[nH]ccc23)c[nH]1 (stereo not drawn) | 5.30 to 6.30 |
| CCCOC(=O)N1CC[C@@H](Nc2c(Cl)cnc3[nH]ccc23)C1 | 5.30 to 6.30 |
| O=C(c1cc(-c2c(Cl)cnc3[nH]ccc23)c[nH]1)N1CCC(O)C1 (stereo not drawn) | < 5.40 |
| CS(=O)(=O)N1CC[C@H](Nc2c(Cl)cnc3[nH]ccc23)C1 | < 5.40 |
| O=C(NCCC(F)(F)F)c1cc(-c2ccnc3[nH]ccc23)c[nH]1 | > 6.30 |
| N#CCCN(Cc1ccccc1)C(=O)c1cc(-c2c(Cl)cnc3[nH]ccc23)c[nH]1 | 5.30 to 6.30 |
| CC[C@@H](C)NC(=O)c1cc(-c2ccnc3[nH]ccc23)c[nH]1 | > 6.30 |
| CCCN(CCC#N)C(=O)c1cc(-c2c(Cl)cnc3[nH]ccc23)c[nH]1 | 5.30 to 6.30 |

###

Listing: Ki of selected molecules
- Experimental target: ROCK I (Homo sapiens)
- Sequence (Q13464 whole entry): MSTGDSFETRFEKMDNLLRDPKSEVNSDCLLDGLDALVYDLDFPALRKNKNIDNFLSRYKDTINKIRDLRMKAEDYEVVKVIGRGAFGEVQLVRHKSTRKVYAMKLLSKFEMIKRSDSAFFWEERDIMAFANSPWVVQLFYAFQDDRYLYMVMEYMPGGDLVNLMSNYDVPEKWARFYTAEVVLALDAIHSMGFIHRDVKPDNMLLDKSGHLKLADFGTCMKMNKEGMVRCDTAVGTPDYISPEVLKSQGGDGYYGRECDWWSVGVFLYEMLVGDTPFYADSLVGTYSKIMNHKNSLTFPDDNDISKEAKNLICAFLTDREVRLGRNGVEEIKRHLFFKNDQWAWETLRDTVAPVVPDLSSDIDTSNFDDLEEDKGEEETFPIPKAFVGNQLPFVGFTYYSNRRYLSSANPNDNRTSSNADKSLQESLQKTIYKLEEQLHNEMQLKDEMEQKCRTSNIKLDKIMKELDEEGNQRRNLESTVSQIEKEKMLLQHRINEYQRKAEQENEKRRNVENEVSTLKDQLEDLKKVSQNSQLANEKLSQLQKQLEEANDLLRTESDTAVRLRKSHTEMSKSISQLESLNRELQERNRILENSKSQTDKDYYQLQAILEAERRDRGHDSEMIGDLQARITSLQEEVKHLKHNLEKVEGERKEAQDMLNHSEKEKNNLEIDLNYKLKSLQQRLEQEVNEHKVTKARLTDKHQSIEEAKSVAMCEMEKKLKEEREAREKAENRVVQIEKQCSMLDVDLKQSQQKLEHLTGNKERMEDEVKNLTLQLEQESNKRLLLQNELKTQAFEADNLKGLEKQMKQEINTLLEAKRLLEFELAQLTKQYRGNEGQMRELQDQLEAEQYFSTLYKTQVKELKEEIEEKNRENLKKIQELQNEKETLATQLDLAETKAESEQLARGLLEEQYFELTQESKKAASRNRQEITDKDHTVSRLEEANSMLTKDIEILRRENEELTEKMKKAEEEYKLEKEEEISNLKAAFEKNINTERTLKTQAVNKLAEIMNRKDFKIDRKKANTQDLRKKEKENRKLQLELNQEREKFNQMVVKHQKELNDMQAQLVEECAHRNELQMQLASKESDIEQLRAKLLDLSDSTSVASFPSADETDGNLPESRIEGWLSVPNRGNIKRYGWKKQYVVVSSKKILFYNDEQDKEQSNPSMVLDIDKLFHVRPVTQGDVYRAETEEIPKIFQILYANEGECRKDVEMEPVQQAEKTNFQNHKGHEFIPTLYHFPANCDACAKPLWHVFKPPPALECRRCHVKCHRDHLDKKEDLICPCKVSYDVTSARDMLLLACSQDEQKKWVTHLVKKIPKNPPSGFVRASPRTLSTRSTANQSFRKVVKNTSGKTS
- Assay protocol: ROCK-I inhibition assay (radioactive enzyme assay, MBP substrate)
- Type: biochemical
- Measurement parameters: Table 6; enzyme inhibition data (Ki)
Reported metric: Ki

| Item smiles | Experimental target | Measured value |
| --- | --- | --- |
| CCNC(=O)c1cc(-c2c(Cl)cnc3[nH]ccc23)c[nH]1 | ROCK I (Homo sapiens) | > 4 µM |
| O=C(c1cc(-c2ccnc3[nH]ccc23)c[nH]1)N1CCC(CO)CC1 | ROCK I (Homo sapiens) | 0.5 to 5 µM |
| N#CCCN(CC1CC1)C(=O)c1csc(-c2ccnc3[nH]ccc23)n1 | ROCK I (Homo sapiens) | < 0.5 µM |
| CN(CCc1ccccn1)C(=O)c1cc(-c2c(Cl)cnc3[nH]ccc23)c[nH]1 | ROCK I (Homo sapiens) | > 4 µM |
| CCc1ccccc1-c1ccnc2[nH]ccc12 | ROCK I (Homo sapiens) | 0.5 to 5 µM |

###

- Experimental target: ROCK I (Homo sapiens)
- Assay protocol: ROCK-I inhibition assay (radioactive enzyme assay, MBP substrate)
- Format: biochemical
- Measurement parameters: enzyme inhibition, Ki(app), Table 5
pKi: −log10 of the molar value.
Listing: pKi of selected molecules
Reported metric: pKi

| Item smiles | Experimental target | Measured value |
| --- | --- | --- |
| CS(=O)(=O)Nc1cccc(CC(=O)Nc2cc(-c3ccnc4[nH]ccc34)cs2)c1 | ROCK I (Homo sapiens) | > 6.30 |
| CC(C)c1cccc(-c2ccnc3[nH]ccc23)c1 | ROCK I (Homo sapiens) | > 6.30 |
| C1=C(c2ccnc3[nH]ccc23)CCNC1 | ROCK I (Homo sapiens) | > 6.30 |
| N#CC1(c2cccc(-c3ccnc4[nH]ccc34)n2)CCCCC1 | ROCK I (Homo sapiens) | > 6.30 |
| O=C(c1cccc(-c2ccnc3[nH]ccc23)c1)N1CCOCC1 | ROCK I (Homo sapiens) | 5.30 to 6.30 |
| N#CCc1cccc(-c2ccnc3[nH]ccc23)c1 | ROCK I (Homo sapiens) | > 6.30 |
| Clc1cnc2[nH]ccc2c1-c1ccsc1 | ROCK I (Homo sapiens) | 5.30 to 6.30 |
| c1ncc(-c2ccnc3[nH]ccc23)cn1 | ROCK I (Homo sapiens) | 5.30 to 6.30 |
| O=C(c1cccc(-c2ccnc3[nH]ccc23)c1)N1CCCCC1 | ROCK I (Homo sapiens) | 5.30 to 6.30 |
| C=C(c1c(Cl)cnc2[nH]ccc12)C1CCCCC1 | ROCK I (Homo sapiens) | 5.30 to 6.30 |

###

- Experimental target: JAK3 (Homo sapiens, UniProt P52333)
- Sequence (P52333 1-1124): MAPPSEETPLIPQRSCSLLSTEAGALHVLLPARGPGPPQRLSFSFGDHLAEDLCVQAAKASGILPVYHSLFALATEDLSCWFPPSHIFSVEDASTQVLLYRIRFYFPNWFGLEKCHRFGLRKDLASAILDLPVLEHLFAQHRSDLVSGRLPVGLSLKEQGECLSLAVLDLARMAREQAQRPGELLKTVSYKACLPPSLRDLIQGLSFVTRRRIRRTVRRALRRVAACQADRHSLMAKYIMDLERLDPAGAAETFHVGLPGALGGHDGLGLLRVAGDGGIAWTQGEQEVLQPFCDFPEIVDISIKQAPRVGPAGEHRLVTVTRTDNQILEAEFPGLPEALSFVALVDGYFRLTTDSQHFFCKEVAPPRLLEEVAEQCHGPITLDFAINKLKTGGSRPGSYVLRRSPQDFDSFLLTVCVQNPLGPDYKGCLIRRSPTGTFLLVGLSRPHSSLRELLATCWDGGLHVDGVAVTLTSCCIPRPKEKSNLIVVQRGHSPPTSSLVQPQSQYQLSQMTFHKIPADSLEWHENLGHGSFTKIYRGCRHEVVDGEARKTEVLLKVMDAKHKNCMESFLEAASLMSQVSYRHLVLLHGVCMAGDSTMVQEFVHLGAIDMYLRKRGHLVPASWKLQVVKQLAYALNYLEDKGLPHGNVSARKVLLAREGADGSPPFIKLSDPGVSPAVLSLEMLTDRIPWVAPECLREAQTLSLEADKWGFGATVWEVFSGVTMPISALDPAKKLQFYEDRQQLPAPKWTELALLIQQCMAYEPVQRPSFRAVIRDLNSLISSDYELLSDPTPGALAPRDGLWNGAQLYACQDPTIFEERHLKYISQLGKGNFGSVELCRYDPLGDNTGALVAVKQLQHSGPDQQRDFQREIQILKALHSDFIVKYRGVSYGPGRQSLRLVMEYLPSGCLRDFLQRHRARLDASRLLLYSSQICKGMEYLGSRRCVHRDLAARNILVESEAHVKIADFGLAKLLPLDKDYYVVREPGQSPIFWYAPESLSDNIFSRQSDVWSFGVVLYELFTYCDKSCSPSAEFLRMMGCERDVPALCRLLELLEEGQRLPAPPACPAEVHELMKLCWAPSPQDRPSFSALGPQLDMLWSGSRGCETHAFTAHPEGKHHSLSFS
- Assay protocol: JAK3 inhibition assay (33P incorporation into poly(Glu)4Tyr)
- Format: biochemical
- Measurement parameters: Table 6; enzyme inhibition data (Ki)
Reported metric: Ki

| Compound | Reported metric | Measured value |
| --- | --- | --- |
| C#CCOC(=O)N1CC[C@@H](Nc2c(Cl)cnc3[nH]ccc23)C1 | Ki | < 500 nM |
| CCN(Cc1ccncc1)C(=O)c1cc(-c2ccnc3[nH]ccc23)c[nH]1 | Ki | < 500 nM |
| Clc1cnc2[nH]ccc2c1-c1ccoc1 | Ki | < 500 nM |
| O=C(NCCC(F)(F)F)c1ccc(-c2ccnc3[nH]ccc23)cc1 | Ki | < 500 nM |
| O=C(NCC(F)(F)F)c1cc(-c2c(Cl)cnc3[nH]ccc23)c[nH]1 | Ki | < 500 nM |
| C[C@@H](Nc1ccnc(-c2ccnc3[nH]ccc23)n1)C(=O)NCC(F)(F)F | Ki | < 500 nM |
| CC(C)CC(=O)Nc1nc(-c2ccnc3[nH]ccc23)cs1 | Ki | < 500 nM |
| O=C(NCC(F)(F)F)[C@@H]1CCCN1c1nc(-c2ccnc3[nH]ccc23)ncc1F | Ki | < 500 nM |
| CCN(Cc1ccccc1)C(=O)c1cc(-c2c(Cl)cnc3[nH]ccc23)c[nH]1 | Ki | < 500 nM |
| NC(=O)C1CCCN1C(=O)c1cc(-c2ccnc3[nH]ccc23)c[nH]1 (stereo not drawn) | Ki | < 500 nM |
| CCN(Cc1ccccn1)C(=O)c1cc(-c2c(Cl)cnc3[nH]ccc23)c[nH]1 | Ki | < 500 nM |
| CC1CCC(Nc2c(Cl)cnc3[nH]ccc23)CC1 (stereo not drawn) | Ki | < 500 nM |
| O=C(NCC1CC1)c1cc(-c2ccnc3[nH]ccc23)c[nH]1 | Ki | < 500 nM |
| N#CCC(=O)N1CC[C@H](Nc2c(Cl)cnc3[nH]ccc23)C1 | Ki | < 500 nM |
| CC(C)(C)OC(=O)n1c(-c2c(Cl)cnc3[nH]ccc23)cc2ccccc21 | Ki | > 5000 nM |
| O=C(CC(F)(F)F)N1CC[C@@H](Nc2c(Cl)cnc3[nH]ccc23)C1 | Ki | 500 to 5000 nM |
| CC(C)(C(=O)NCC(F)(F)F)c1cccc(-c2ccnc3[nH]ccc23)n1 | Ki | < 500 nM |
| CCCN(CCC)C(=O)c1cc(-c2c(Cl)cnc3[nH]ccc23)c[nH]1 | Ki | < 500 nM |
| O=C(NC1CCC1)c1cc(-c2ccnc3[nH]ccc23)c[nH]1 | Ki | < 500 nM |
| CCCN(CCC#N)C(=O)c1cc(-c2c(Cl)cnc3[nH]ccc23)c[nH]1 | Ki | < 500 nM |
| Cc1ccc(C)c(-c2ccnc3[nH]ccc23)c1 | Ki | > 5000 nM |
| O=C(c1cc(-c2c(F)cnc3[nH]ccc23)c[nH]1)N(CC1CC1)CC(F)(F)F | Ki | < 500 nM |
| Fc1ccc(-c2ccnc3[nH]ccc23)c(F)c1 | Ki | < 500 nM |
| CC(=O)c1ccc(-c2c(Cl)cnc3[nH]ccc23)s1 | Ki | < 500 nM |
| COC(=O)N1CC[C@H](Nc2c(Cl)cnc3[nH]ccc23)C1 | Ki | 500 to 5000 nM |
| CCC(=O)N1CC[C@@H](Nc2c(Cl)cnc3[nH]ccc23)C1 | Ki | < 500 nM |
| CC(=O)c1ccccc1-c1ccnc2[nH]ccc12 | Ki | > 5000 nM |
| O=C(c1cc(-c2c(Cl)cnc3[nH]ccc23)c[nH]1)N1CCCC(O)C1 (stereo not drawn) | Ki | < 500 nM |
| CC1CCCCC1Nc1c(Cl)cnc2[nH]ccc12 (stereo not drawn) | Ki | < 500 nM |
| C=CCN(C(=O)c1csc(-c2ccnc3[nH]ccc23)n1)[C@@H](C)c1ccccc1 | Ki | < 500 nM |
| C#CCOC(=O)N1CCCC(Nc2c(Cl)cnc3[nH]ccc23)C1 (stereo not drawn) | Ki | < 500 nM |
| CCCCN(CC#N)C(=O)c1cc(-c2c(Cl)cnc3[nH]ccc23)c[nH]1 | Ki | < 500 nM |
| O=C(NCC(F)(F)F)c1ccc(-c2ccnc3[nH]ccc23)s1 | Ki | < 500 nM |
| CC(C)[C@@H]1CC[C@@H](C)C[C@H]1Nc1c(Cl)cnc2[nH]ccc12 | Ki | 500 to 5000 nM |
| O=C(c1cc(-c2ccnc3[nH]ccc23)c[nH]1)N1CCC(O)C1 (stereo not drawn) [compound 366] | Ki | 500 to 5000 nM |
| CCCOC(=O)N1CC[C@H](Nc2c(Cl)cnc3[nH]ccc23)C1 | Ki | < 500 nM |
